All figures here come from patent US10428017B2.

Form field: EC50 (one value per entry).
biological target: F508delCFTR (Homo sapiens, UniProt P13569, DEL508-508); construct: expressed in transfected cells; host or cells: CFBE4lo-F508delCFTR-HRP cells (human lung derived epithelial cell line, doxycycline-inducible); assay: Cell Surface Expression-Horse Radish Peroxidase (CSE-HRP) Assay; type: cell-based; details: test compound without co-corrector; CFBE4lo-F508delCFTR-HRP cells, 18-24 hours at 33° C., HRP luminescence readout; read-out: EC50 (without co-corrector)
Sequence (P13569 with tags, fused parts or gaps DEL508-508): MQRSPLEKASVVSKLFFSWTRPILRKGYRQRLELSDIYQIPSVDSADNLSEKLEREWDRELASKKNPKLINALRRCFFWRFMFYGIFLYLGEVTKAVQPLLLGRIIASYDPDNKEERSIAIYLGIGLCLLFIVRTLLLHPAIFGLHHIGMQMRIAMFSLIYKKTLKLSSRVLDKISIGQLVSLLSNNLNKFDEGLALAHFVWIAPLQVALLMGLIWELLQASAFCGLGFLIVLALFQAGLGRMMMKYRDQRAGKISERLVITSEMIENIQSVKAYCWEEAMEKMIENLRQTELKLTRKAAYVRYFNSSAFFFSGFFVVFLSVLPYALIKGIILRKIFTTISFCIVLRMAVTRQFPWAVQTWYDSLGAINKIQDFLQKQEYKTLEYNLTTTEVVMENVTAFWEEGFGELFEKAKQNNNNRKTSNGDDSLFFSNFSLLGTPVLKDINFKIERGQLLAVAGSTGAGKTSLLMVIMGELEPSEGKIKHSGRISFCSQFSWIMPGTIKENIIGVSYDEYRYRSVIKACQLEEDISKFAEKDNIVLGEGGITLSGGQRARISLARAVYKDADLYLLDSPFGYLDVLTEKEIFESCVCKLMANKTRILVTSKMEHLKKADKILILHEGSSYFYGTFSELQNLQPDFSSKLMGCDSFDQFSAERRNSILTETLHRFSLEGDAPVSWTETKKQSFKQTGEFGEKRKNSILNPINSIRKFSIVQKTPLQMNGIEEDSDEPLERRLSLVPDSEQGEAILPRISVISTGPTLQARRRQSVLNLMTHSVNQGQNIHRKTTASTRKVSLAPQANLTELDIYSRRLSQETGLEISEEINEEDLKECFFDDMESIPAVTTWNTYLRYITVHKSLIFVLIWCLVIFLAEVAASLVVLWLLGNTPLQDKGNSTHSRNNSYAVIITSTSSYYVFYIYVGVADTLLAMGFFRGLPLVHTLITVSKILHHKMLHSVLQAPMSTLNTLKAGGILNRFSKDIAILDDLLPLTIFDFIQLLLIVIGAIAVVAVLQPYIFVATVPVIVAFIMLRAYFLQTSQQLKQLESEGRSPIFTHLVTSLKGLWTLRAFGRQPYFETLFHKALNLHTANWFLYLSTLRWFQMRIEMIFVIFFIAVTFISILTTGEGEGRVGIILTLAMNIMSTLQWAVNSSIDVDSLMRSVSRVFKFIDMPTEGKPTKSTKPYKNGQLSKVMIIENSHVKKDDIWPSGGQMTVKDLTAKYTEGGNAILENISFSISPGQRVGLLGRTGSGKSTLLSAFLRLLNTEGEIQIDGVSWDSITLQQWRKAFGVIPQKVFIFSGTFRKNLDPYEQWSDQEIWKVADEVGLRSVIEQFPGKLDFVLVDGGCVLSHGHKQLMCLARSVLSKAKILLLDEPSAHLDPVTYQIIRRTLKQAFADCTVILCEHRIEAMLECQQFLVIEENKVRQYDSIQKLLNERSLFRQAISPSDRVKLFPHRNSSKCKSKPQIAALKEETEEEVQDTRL

Solved entries (count: 3):
compound="COc1ccc(Br)c2c1CCOC2C(=O)NS(=O)(=O)c1cccc2ccccc12 (stereo not shown)" measured_value="3 to 10 µM"
compound="COc1ccc(C2CCC2)c2c1C(C(=O)NS(=O)(=O)c1cccc3ncn(C)c13)CO2 (stereo not shown)" measured_value="< 3 µM"
compound=COc1ccc(C2CCC2)c2c1[C@@H](C(=O)NS(=O)(=O)c1cccc3c1CCCN3)CO2 measured_value="3 to 10 µM"

What value of EC50 has been reported for the following compound? COc1ccc(Br)c2c1C(C(=O)NS(=O)(=O)c1cccc3ccccc13)CCO2 (stereo not shown)
< 3 µM

###

target: F508delCFTR (Homo sapiens, UniProt P13569, DEL508-508); construct: expressed in transfected cells; host or cells: CFBE4lo-F508delCFTR-HRP cells (human lung derived epithelial cell line, doxycycline-inducible); test: Cell Surface Expression-Horse Radish Peroxidase (CSE-HRP) Assay; format: cell-based; settings: with co-corrector 2 μM; maximum at any tested concentration (up to 20 μM), normalized to on-plate positive control (2 μM co-corrector)
PARAMETER: Maximum % activity (with co-corrector)

compound="O=C(NS(=O)(=O)c1cccc2ccccc12)C1COc2c(Cl)cccc21 (stereo not shown)" tested_target="F508delCFTR (Homo sapiens, UniProt P13569, DEL508-508)" measured_value="++ (≥150 and <350)"
compound=COc1ccc(C2CCC2)c2c1[C@@H](C(=O)NS(=O)(=O)c1cccc3ncccc13)CCO2 tested_target="F508delCFTR (Homo sapiens, UniProt P13569, DEL508-508)" measured_value="+++ (≥350)"
compound=CCSC[C@H]1C[C@@](C(=O)NS(=O)(=O)c2cccc3ccccc23)(c2ccccc2)c2ccccc2O1 tested_target="F508delCFTR (Homo sapiens, UniProt P13569, DEL508-508)" measured_value="+++ (≥350)"
compound="O=C(NS(=O)(=O)c1cccc2ccccc12)C1(c2ccccc2)C[C@@H](CN2CCCC2)Oc2ccccc21 (stereo partly shown)" tested_target="F508delCFTR (Homo sapiens, UniProt P13569, DEL508-508)" measured_value="++ (≥150 and <350)"

###

target: F508delCFTR (Homo sapiens, UniProt P13569, DEL508-508); construct: expressed in transfected cells; host or cells: CFBE4lo-F508delCFTR-HRP cells (human lung derived epithelial cell line, doxycycline-inducible); assay: Cell Surface Expression-Horse Radish Peroxidase (CSE-HRP) Assay; type: cell-based; details: test compound without co-corrector; maximum at any tested concentration (up to 20 μM), normalized to on-plate positive control (2 μM co-corrector)
Form field: Emax (one value per entry).

Solved entries (count: 8):
compound="CC(C)c1ccc(S(=O)(=O)NC(=O)C2(C)Cc3ccccc3O2)cc1 (centres unmarked)" measured_value="< 50%"
compound="CCC1(C(=O)NS(=O)(=O)c2cccc3ccccc23)COc2c(OC)cccc21 (centres unmarked)" measured_value="50 to 150%"
compound="CCC1(C(=O)NS(=O)(=O)c2cccc3ccccc23)COc2c(Cl)cccc21 (centres unmarked)" measured_value="50 to 150%"
compound=COc1ccc(Br)c2c1[C@H](C(=O)NS(=O)(=O)c1cccc3cnn(C)c13)CCO2 measured_value="≥ 150%"
compound="COc1cccc2c1C(C(=O)NS(=O)(=O)c1cccc3ccccc13)CCO2 (centres unmarked)" measured_value="≥ 150%"
compound="COc1cccc2c1C(C(=O)NS(=O)(=O)c1cccc3ccccc13)CC(C)(C)O2 (centres unmarked)" measured_value="≥ 150%"
compound=COc1ccc(C2CCC2)c2c1[C@H](C(=O)NS(=O)(=O)c1cccc3ncccc13)CCO2 measured_value="≥ 150%"
compound="COc1ccc(C2CCC2)c2c1OCCC2C(=O)NS(=O)(=O)c1cccc2ncccc12 (centres unmarked)" measured_value="≥ 150%"

What value of Emax has been reported for the following compound? COc1ccc(C2CCCC2)c2c1C(C(=O)NS(=O)(=O)c1cccc3ccccc13)CCO2 (centres unmarked)
≥ 150%

What value of Emax has been reported for the following compound? COc1c(Br)cc(Br)c2c1C(C(=O)NS(=O)(=O)c1cccc3ccccc13)CCO2 (centres unmarked)
≥ 150%

What value of Emax has been reported for the following compound? Cc1ccccc1S(=O)(=O)NC(=O)C1CCOc2ccccc21 (centres unmarked)
< 50%
